growth inhibition by entry:
experiment: NCI Yeast Anticancer Drug Screen. Data for the sgs1 strain (AID 173);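 note: 0% = growth of vehicle-only control cultures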; conditions: S. cerevisiae sgs1 mutant, at 1.2 µM, active compounds read high
About 79,000 compounds went through this panel and 15% of them were active in at least one assay; those are over-represented in the sample as a whole.

# compound, measurement.unit, growth inhibition
rows = [
    ("CC(=O)Cc1ccc[cH-]1.[Fe+2].c1cc[cH-]c1", "%", 0),
    ("NNc1c(F)c(F)cc(F)c1F", "%", -3),
    ("Clc1ccc(SC(/C=C/NNC2=NC(c3ccccc3)C(c3ccccc3)=NN2)c2ccccc2)cc1 (stereo unspecified)", "%", 1),
    ("O=C(O)C1CCCCC1c1c2ccc(=O)c(O)c-2oc2c(O)c(O)ccc12 (stereo unspecified)", "%", -11),
    ("CCCCCCCCCCCCCCCCCCOCC(O)COP(=O)(O)OCC1OC(n2cc(F)c(=O)[nH]c2=O)CC1O (stereo unspecified)", "%", 26),
    ("O=C(c1cc(Br)ccc1O)c1cc(Br)ccc1O", "%", 32),
    ("C(CCSC1=NCCN1)CSC1=NCCN1 (tested in a mixture with another compound)", "%", 11),
    ("COC(=O)CSSCc1ccc([N+](=O)[O-])cc1", "%", -20),
    ("C(=C\\c1ccccc1)/COc1ccccc1C(N1CCOCC1)n1nc2ccccc2n1 (stereo unspecified)", "%", 23),
    ("O=[N+]([O-])c1cc(CCl)ccc1CCl", "%", 11),
    ("Cc1ccc2ccc(O)cc2c1", "%", -24),
]

----------
test: NCI Yeast Anticancer Drug Screen. Data for the rad52 strain (AID 147);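 note: 0% = growth of vehicle-treated control cultures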; conditions: S. cerevisiae rad52 mutant growth inhibition; at 100.0 µM; active compounds read high
The panel holds about 79,000 compounds, 15% with a hit somewhere; the sample as a whole holds those more often.
Label scheme for growth inhibition: lower than 80% is label 0, 80% and above is label 1.

# molecule, cat
records = [
    ("O=C1C=CC(=O)N1c1ccc2c(c1)Cc1cc(NC(=O)C(F)(F)F)ccc1-2", "label 0"),
    ("CC(=O)OCc1ccc(O)c(C=O)c1", "label 0"),
    ("CCCS(=O)(=O)Nc1ccc(Nc2c3ccccc3nc3ccccc23)c(OC)c1", "label 1"),
    ("S=C(S)NN1CCOCC1", "label 0"),
    ("CC1(C)C(=O)OC(n2cc(F)c(=O)[nH]c2=O)C1=O (stereo unspecified)", "label 0"),
    ("C=C(CN(C)C)C(=O)c1cc(C)ccc1C", "label 1"),
    ("C/C(=N\\O)C1CC2C=C(C#N)C1N(Cc1ccccc1)C2 (stereo unspecified)", "label 0"),
    ("Cn1c(=O)c2ccccc2c2ccccc21", "label 1"),
    ("CC(O)C(O)C(O)C(/C=N\\Nc1ccccc1)=N/Nc1ccccc1 (stereo unspecified)", "label 1"),
    ("O=C(N=Nc1cc(Cl)ccc1Cl)NNc1cc(Cl)ccc1Cl", "label 0"),
    ("CCCCCCCCCC/C=C\\C(=O)O", "label 1"),
    ("CC1C(NNc2ccccc2)Oc2cc3c(cc2C1c1ccccc1O)OCO3 (stereo unspecified)", "label 1"),
    ("S=C(Nc1ccc(Cl)cc1)SC1CCCCC1", "label 1"),
    ("CCc1ncnc2cc(OCC3CO3)c(OC)cc12 (stereo unspecified)", "label 1"),
    ("CC(=O)OCCOCNC(=S)N/N=C(\\C)c1cnccn1", "label 0"),
    ("CN1c2ccc(Cl)cc2C(=O)NC1c1ccc([N+](=O)[O-])s1 (stereo unspecified)", "label 1"),
    ("Nc1ncncc1C(C1=C(O)COC1=O)C1=C(O)COC1=O", "label 0"),
    ("Cc1c(C(Cc2ccccc2N(C)C(=O)/C=C\\C(=O)O)c2c[nH]c3ccccc23)c2ccccc2n1C (stereo unspecified)", "label 0"),
    ("CCN(CC)CCNc1ccc([N+](=O)[O-])c2nc3ccc(OC)cc3c(N)c12", "label 1"),
    ("COc1cc2c3c(cccc3c1)C(=O)N(CCN(C)C)C2=O", "label 1"),
    ("C/C(=N\\NC(=S)N1CCCCC1)c1cccc(C)n1", "label 1"),
    ("CC(=O)ON1C(=O)c2cccc3cccc(c23)C1=O", "label 1"),
    ("COC(=O)c1ccc([N+](=O)[O-])c(O)c1", "label 1"),
    ("CN(C)c1ccc(Sc2ccc3nc(N)nc(N)c3c2)cc1", "label 0"),
    ("c1ccc2c(c1)C(=NCCCN1CCCCCC1)c1cccn1-2", "label 1"),
    ("[N-]=[N+]=NC1=C(c2ccccn2)C(=O)c2cccc3cccc1c23", "label 0"),
    ("CN(C)Cc1cc(N=Nc2ccc(Cl)cc2)cc(CN(C)C)c1O", "label 0"),
    ("CCCCCCCCCCCCCC[N+](C)(CC(=O)[O-])Cc1ccccc1 (stereo unspecified)", "label 1"),
    ("O=C1Nc2ccccc2/C1=C/COc1ccccc1", "label 1"),
    ("O=C1c2cc([N+](=O)[O-])ccc2-c2cccc(F)c21", "label 1"),
    ("CC1CCN(CCC(=O)c2ccc(Cl)cc2)CC1", "label 0"),
    ("O=[N+]([O-])/C=C/c1ccc2ccccc2c1", "label 1"),
    ("CC[C@@]1(O)C(=O)OCc2c1cc1n(c2=O)Cc2cc3c(N)cccc3nc2-1", "label 0"),
    ("C=C1CC(Cn2cc(Br)c(=O)[nH]c2=O)(c2ccc(-c3ccccc3)cc2)OC1=O (stereo unspecified)", "label 1"),
    ("O=[N+]([O-])c1cccc2nc3ccccc3c(NCCCN3CCOCC3)c12", "label 1"),
    ("CSC1=NNC(SC)=NN1", "label 1"),
    ("Nc1ccc2c(c1)C(=O)c1cccc(N)c1C2=O", "label 1"),
    ("O=[N+]([O-])c1ccc2c(c1)C(N1CCN(CCO)CC1)Cc1ccc(F)cc1S2 (stereo unspecified)", "label 0"),
    ("Cc1cc(S(=O)(=O)/N=C(/NN)NNc2cccc(C(F)(F)F)n2)c(S)cc1Cl", "label 0"),
]

----------
assay: NCI Yeast Anticancer Drug Screen. Data for the CLN2oe strain (AID 163);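 note: 0% = growth of vehicle-only control cultures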; details: S. cerevisiae CLN2oe strain, at 11.0 µM
This is part of a sample that, as a whole, favours compounds with a hit. Of some 79,000 tested, about 15% had one in any assay. Active and inactive are the calls of the source. Rule as the data show it: active = growth inhibition above about 70%; inactive = the rest.
Classes used: t (active), f (inactive)

# compound, cat
rows = [
    ("O=Nc1cccnc1N=O", "f"),
    ("O=C([O][Sn]([O]C(=O)c1ccccc1)([c]1ccccc1)[c]1ccccc1)c1ccccc1", "f"),
    ("CC(C)NC(=O)OCc1c(COC(=O)NC(C)C)c(-c2ccc(Cl)c(Cl)c2)n2c1CCC2", "f"),
    ("Cc1ccc(NC(=O)/C(Cl)=C(\\Cl)C(=O)O)cc1C", "f"),
    ("COc1ccc2sc3cccc(NCCN(C)C)c3c(=O)c2c1", "f"),
    ("COC(=O)c1ccc(NCC2=CC(=O)C=CC2=O)cc1O", "t"),
    ("COc1ccc(Br)c(C(=O)Sc2nnnn2-c2cccc(Cl)c2)c1", "f"),
    ("O=C(O)c1cccc(-c2c3ccc(=O)cc-3oc3cc(O)ccc23)c1", "f"),
    ("Cc1[nH]c2ccccc2c1C(c1ccc(N)cc1)c1c(C)[nH]c2ccccc12", "f"),
    ("COc1cc(C2SCC(=O)N2c2ccc(-c3ccc(-n4c(-c5ccccc5)nc5ccccc5c4=O)cc3)cc2)cc(OC)c1OC (stereo not given)", "f"),
]

----------
experiment: NCI Yeast Anticancer Drug Screen. Data for the bub3 strain (AID 167); conditions: S. cerevisiae bub3 mutant strain, at 50.0 µM, active compounds read high
About 79,000 compounds went through this panel and 15% of them were active in at least one assay; those are over-represented in the sample as a whole.
Label scheme for growth inhibition: lower than 80% is False, 80% and above is True.

# compound, cat
measured = [
    ("O=[N+]([O-])c1cccc2nc3ccccc3c(NCCCN3CCOCC3)c12", "True"),
    ("CCCCCCCCCCCCCCC(C(=O)[O-])[n+]1ccccc1 (stereo unspecified)", "True"),
    ("CN(C)c1nc2sc3c(c2c(=O)o1)CCCC3", "False"),
    ("COc1ccc(/C=C/C(=O)C(C)(C)Br)cc1", "False"),
    ("CNC1C(OC2C(OC3C(O)C(O)C(N=C(N)N)C(O)C3N=C(N)N)OC(C)C2(O)CO)OC(CO)C(O)C1O (stereo unspecified)", "True"),
    ("CN(C)C[C@H]1CC[C@@H](CN(C)C)C1=O", "False"),
]
